- Test system: ATP;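 also: ATP exposure 15 min at 22 °C before imaging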
- MEASUREMENT NOTES: switch fluorescence ratio, 500 uM ATP over buffer (Cy3 cluster intensity, sum of 5 cycles each) (fold (ratio)); higher = stronger signal-on switching upon ATP binding; sequences stand for … in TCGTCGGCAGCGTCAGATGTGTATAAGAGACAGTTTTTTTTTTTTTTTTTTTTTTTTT…TC
- REPORTED CONDITIONS: aptamer strand: ATP DNA aptamer (quencher-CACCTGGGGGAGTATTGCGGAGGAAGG + anchor), 100 nM annealed; ATP concentration: 500 uM
QUANTITY NAME: switch fluorescence ratio
Respond numerically, and do not add a unit to the figure.

Below: 4 sequences and their reported switch fluorescence ratio.
In [3]: df
Out[3]:
   sequence_code  measured_number
0     GGTTGAGCGG            0.993
1     GTTTATAGGT            0.981
2     ATGTACATTT             1.07
3     GGGGTATCGC                1

Per the records, this sequence ( `TATGGATTGT` ) has switch fluorescence ratio equal to 1.01

The sequence listed as `TCTCACTGCC` shows switch fluorescence ratio equal to 1.08

For this sequence ( `TTGGCGCCGT` ), measured switch fluorescence ratio is 0.998

Note to self: switch fluorescence ratio recorded for `GAATGGGAGT` was 0.997

Just so you know, measured switch fluorescence ratio for `TACGGAAGGA` came out at 1.1

---

- System: ATP;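 also: ATP exposure 15 min at 22 °C before imaging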
- MEASUREMENT NOTES: switch fluorescence ratio, 500 uM ATP over buffer (Cy3 cluster intensity, sum of 5 cycles each) (fold (ratio)); higher = stronger signal-on switching upon ATP binding; sequences stand for … in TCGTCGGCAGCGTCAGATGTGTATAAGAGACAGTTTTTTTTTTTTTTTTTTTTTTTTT…TC
- REPORTED CONDITIONS: aptamer strand: ATP DNA aptamer (quencher-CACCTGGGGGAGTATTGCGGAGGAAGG + anchor), 100 nM annealed; ATP concentration: 500 uM
Measured switch fluorescence ratio values are reported for all entries that follow.
# print the numeric value only

These recorded examples may help you get a feel for the data.
>>> print(df.to_string())
   sequence_code  test_system              quantity_name  measured_number
0     AGTTTTTTTT          ATP  switch fluorescence ratio            0.997
1     CGAGGGTAGG          ATP  switch fluorescence ratio             1.04
2     GTGGTTACAG          ATP  switch fluorescence ratio             1.02
3     AGCGGGGGTA          ATP  switch fluorescence ratio             1.01

// recorded switch fluorescence ratio for `AATTTGCGAC` : 1.05

Memo: `GGGGCTTGTG` , reported switch fluorescence ratio: 1.01

---

- Test system: ATP;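 also: ATP exposure 15 min at 22 °C before imaging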
- MEASUREMENT NOTES: switch fluorescence ratio, 500 uM ATP over buffer (Cy3 cluster intensity, sum of 5 cycles each) (fold (ratio)); higher = stronger signal-on switching upon ATP binding; sequences stand for … in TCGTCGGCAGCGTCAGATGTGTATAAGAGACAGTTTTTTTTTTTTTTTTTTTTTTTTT…TC
- REPORTED CONDITIONS: aptamer strand: ATP DNA aptamer (quencher-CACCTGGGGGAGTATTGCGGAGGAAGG + anchor), 100 nM annealed; ATP concentration: 500 uM
Readings of switch fluorescence ratio for the listed sequences
API note: the answer field is a bare number with no unit suffix.

Some sequences with known switch fluorescence ratio results, for comparison:
>>> print(df.to_string())
   sequence_code  measured_number
0     ACTTTCCGTT              1.1
1     GTTTTAAAGG            0.984
2     CGATGAGTTT             1.01
3     GCATATGGCT                1
4     TTTAGCTCTG             1.02
5     ATAGACACGC             1.03
6     ATCTATGTGG            0.982
7     GCGGGGACAA             1.07

For record `GTAGTAGGGG` the listed switch fluorescence ratio is 0.999

Query `AAGGAGACTA` yields switch fluorescence ratio of 1.02

get_value(item= `TTCTGGCTAT` , readout=switch fluorescence ratio) returns 1.01

Query `AGGTGGTACA` yields switch fluorescence ratio of 0.993

Measured switch fluorescence ratio, `TGCAAAGAAA` : 1.15

// `CTAGGTCGGC` : switch fluorescence ratio value = 0.994

---

- System: ATP;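 also: ATP exposure 15 min at 22 °C before imaging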
- MEASUREMENT NOTES: switch fluorescence ratio, 500 uM ATP over buffer (Cy3 cluster intensity, sum of 5 cycles each) (fold (ratio)); higher = stronger signal-on switching upon ATP binding; sequences stand for … in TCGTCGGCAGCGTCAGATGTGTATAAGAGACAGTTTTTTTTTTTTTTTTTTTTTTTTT…TC
- REPORTED CONDITIONS: aptamer strand: ATP DNA aptamer (quencher-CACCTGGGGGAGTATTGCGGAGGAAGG + anchor), 100 nM annealed; ATP concentration: 500 uM
QUANTITY NAME: switch fluorescence ratio
Reply briefly: the number, and no unit.

Solved cases (6 shown):
   sequence_code  test_system  measured_number
0     AACGTGTACG          ATP             1.01
1     TTCTGTGTTT          ATP             1.01
2     TTAGGGGCAA          ATP             1.04
3      GATTAAAAT          ATP             1.01
4     GGGGGGTACT          ATP            0.994
5     AACTGCTGTA          ATP            0.999

// recorded switch fluorescence ratio for `CGAAAAGGCT` : 1.01

# switch fluorescence ratio of `CGTTTTGTTA` = 0.977

# switch fluorescence ratio of `TGGTACGGAG` = 1

// `GTGTGCCGCA` : switch fluorescence ratio value = 0.977

Looking up `GTTATAGCGG` , I found its switch fluorescence ratio recorded as 0.976

In plain terms, `TCGGCGAAAA` has a documented switch fluorescence ratio of 1.84

---

- Test system: ATP;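 also: ATP exposure 15 min at 22 °C before imaging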
- MEASUREMENT NOTES: switch fluorescence ratio, 500 uM ATP over buffer (Cy3 cluster intensity, sum of 5 cycles each) (fold (ratio)); higher = stronger signal-on switching upon ATP binding; sequences stand for … in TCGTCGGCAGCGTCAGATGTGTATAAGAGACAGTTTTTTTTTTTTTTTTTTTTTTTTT…TC
- REPORTED CONDITIONS: aptamer strand: ATP DNA aptamer (quencher-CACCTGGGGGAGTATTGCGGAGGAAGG + anchor), 100 nM annealed; ATP concentration: 500 uM
Assign T to entries whose switch fluorescence ratio meets or exceeds 1; assign F to the rest.

Below are worked cases with known answers.
>>> df
   sequence_code  category
0     TACAGGATGG         F
1     TATTTGAGCT         T

// inclusive: switch fluorescence ratio at least 1? input: `CATGTTTGCT`
F

State whether the measured switch fluorescence ratio reaches 1, counting equality as reaching it, for `AGGTTTCTCT`
F

Could you tell me if the measured switch fluorescence ratio of `TCGAGAGTAG` reaches 1 or more?
F

Check if switch fluorescence ratio >= 1 (inclusive). Item: `GACACCAATC`
T

switch fluorescence ratio >= 1 for `GTTGCATTAT` ?
T

Does the reported switch fluorescence ratio for `TTCCAGGAGC` fall at or above the 1 mark?
F

---

- System: ATP;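 also: ATP exposure 15 min at 22 °C before imaging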
- MEASUREMENT NOTES: switch fluorescence ratio, 500 uM ATP over buffer (Cy3 cluster intensity, sum of 5 cycles each) (fold (ratio)); higher = stronger signal-on switching upon ATP binding; sequences stand for … in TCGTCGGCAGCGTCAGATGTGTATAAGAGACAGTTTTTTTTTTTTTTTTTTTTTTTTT…TC
- REPORTED CONDITIONS: aptamer strand: ATP DNA aptamer (quencher-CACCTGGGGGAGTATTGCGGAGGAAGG + anchor), 100 nM annealed; ATP concentration: 500 uM
QUANTITY NAME: switch fluorescence ratio
Please give only the number in your answer, with no unit.

Record for `GATGCTCGAA` under target or system ATP: switch fluorescence ratio reported as 0.989

GET /values?item= `CCGGGAGGGG` &system= ATP returns switch fluorescence ratio: 1.11

For the sequence `ATCACGCGTA` , the measured switch fluorescence ratio on ATP was 1.02

// sequence `AGTTGGCGGG` , assay ATP, switch fluorescence ratio value: 1.02

Entry `GAGTGATTTA` ; assay system ATP; switch fluorescence ratio recorded at 1.01

Hey, ATP data for `GAAGCTGCTT` : switch fluorescence ratio came out at 0.991
